assay: Pharmacokinetic profile in mice after I.V. injection (LC-MS/MS of plasma, brain, liver, kidney); format: in vivo, mouse; settings: male, C57BL/6, mouse, kidney, iv, 100 mg/kg, 100 mg/kg I.V.
MEASURED PARAMETER: clearance (mL/min)

INSERT INTO results (compound, readout_unit, assay_result) VALUES
  ('COc1cc(CC(=O)Nc2cc(C3CCC3)[nH]n2)cc(OC)c1OC [25–106]', 'mL/min', 154);

---

assay: Pharmacokinetic profile in mice after I.V. injection (LC-MS/MS of plasma, brain, liver, kidney); format: in vivo, mouse; conditions: male, C57BL/6, mouse, iv; plasma, 50 mg/kg I.V.
MEASURED PARAMETER: half-life (h)

INSERT INTO measurements (cpd_smiles, assay_result) VALUES
  ('COc1cc(CC(=O)Nc2cc(C3CCC3)[nH]n2)cc(OC)c1OC', 7.48);

---

test: Pharmacokinetic profile in mice after I.V. injection (LC-MS/MS of plasma, brain, liver, kidney); assay type: in vivo, mouse; settings: male, C57BL/6, mouse, brain, iv, 50 mg/kg, 50 mg/kg I.V.
MEASURED PARAMETER: clearance (mL/min)

INSERT INTO assay_data (cpd_smiles, assay_result) VALUES
  ('COc1cc(CC(=O)Nc2cc(C3CCC3)[nH]n2)cc(OC)c1OC', 275);

---

experiment: Pharmacokinetic profile in mice after I.V. injection (LC-MS/MS of plasma, brain, liver, kidney); type: in vivo, mouse; conditions: male, C57BL/6, mouse, plasma, iv, 10 mg/kg, 10 mg/kg I.V.
MEASURED PARAMETER: clearance (mL/min)

INSERT INTO assay_data (cpd_smiles, measured_parameter, assay_result) VALUES
  ('COc1cc(CC(=O)Nc2cc(C3CCC3)[nH]n2)cc(OC)c1OC', 'clearance', 1);

---

Assay: Pharmacokinetic profile in mice after I.V. injection (LC-MS/MS of plasma, brain, liver, kidney)
Assay type: in vivo, mouse
Conditions: male, C57BL/6, mouse, iv; brain, 200 mg/kg I.V.; read-out: Clast
From the text: The wild-type group housed male C57BL/6 mice 10–12 weeks of age were used for all in vivo, ex vivo, and behavioral studies. This age range was selected to be consistent with previous studies of conditional Cdk5 knockout mice ([Plattner et al., 2015]). […] A quantitative determination of 25–106 in mouse plasma and tissue homogenate was accomplished by the use of protein precipitation and high-performance liquid chromatography with tandem mass spectrometry detection (LC-MS/MS). […]
MEASURED PARAMETER: concentration at 24 h (ng/mL)

INSERT INTO results (cpd_smiles, readout_unit, assay_result) VALUES
  ('COc1cc(CC(=O)Nc2cc(C3CCC3)[nH]n2)cc(OC)c1OC', 'ng/mL', 14);

---

experiment: Pharmacokinetic profile in mice after I.V. injection (LC-MS/MS of plasma, brain, liver, kidney); format: in vivo, mouse; details: male, C57BL/6, mouse, iv; plasma, 10 mg/kg I.V.; read-out: AUC24h
MEASURED PARAMETER: AUC(0-t) (ng·h/mL)

INSERT INTO results (cpd_smiles, readout_unit, assay_result) VALUES
  ('COc1cc(CC(=O)Nc2cc(C3CCC3)[nH]n2)cc(OC)c1OC', 'ng·h/mL', 5710);

Just for reference, paper PMC9134315 is where these values come from.
